- Tested on: rat small-intestinal brush border membrane vesicles
- experimental details: Inhibitory effect on 33PO4 uptake into rat small-intestinal brush border membrane vesicles (rapid filtration method)
- Assay type: biochemical, Wistar female rat
- assay conditions: 1 µM test compound; 33PO4 uptake into rat small-intestinal BBMVs, 60 seconds
Please note: met applies when Rate of uptake inhibition (%) (1 µM) is 50% or greater, and not met applies otherwise.

Consider the following illustrative entries.
compound="CN1N(Cc2ccc(C#CCN3CCOCC3)c(F)c2F)C(=O)C(C(=O)Nc2ccc(C(F)(F)F)cc2-c2cc(C(F)(F)F)ncn2)=C(O)C1(C)C [Example 315]" class_label=met
compound="CCC1(CC)C(O)=C(C(=O)Nc2ccc(C(F)(F)F)cc2-c2cc(C(F)(F)F)ncn2)C(=O)N(Cc2ccc(OCCN3CCOCC3)c(F)c2F)N1C [Example 291]" class_label="not met"
compound="COc1cccc(-c2cc(C(F)(F)F)ccc2NC(=O)C2=C(O)[C@@]3(C)CCCN3N(Cc3ccc(C#CCOCCCO)c(F)c3F)C2=O)c1OC [Example 127]" class_label=met

Prompt: Given C[C@]12CCCN1N(Cc1ccc(C#CCOCCCCO)c(F)c1F)C(=O)C(C(=O)Nc1ccc(C(F)(F)F)cc1-c1ccc(C(F)(F)F)nc1)=C2O [Example 128] , state whether its Rate of uptake inhibition (%) (1 µM) is at least 50%.
Completion: met

Prompt: Given COCCN1CCC[C@H]1COc1ccc(CN2C(=O)C(C(=O)Nc3ccc(C(F)(F)F)cc3-c3cc(C(F)(F)F)ncn3)=C(O)C3(CCC3)N2C)c(F)c1F [Example 404] , state whether its Rate of uptake inhibition (%) (1 µM) is at least 50%.
Completion: not met

Prompt: Given Cc1cc(NC(=O)C2=C(O)[C@@H]3CCC(C)(C)N3N(Cc3cccc(F)c3)C2=O)c(C(F)(F)F)o1 [Example 4] , state whether its Rate of uptake inhibition (%) (1 µM) is at least 50%.
Completion: not met

###

- System: rat small-intestinal brush border membrane vesicles
- experimental details: Inhibitory effect on 33PO4 uptake into rat small-intestinal brush border membrane vesicles (rapid filtration method)
- Type: biochemical, Wistar female rat
- assay conditions: 1 µM test compound; 33PO4 uptake into rat small-intestinal BBMVs, 60 seconds
experimental readout: Rate of uptake inhibition (%) (1 µM)
Give your result in % as a bare value.

Some entries whose results are on file:
compound="CN1N(Cc2ccc(OCCN3[C@@H]4COC[C@H]3C4)c(F)c2F)C(=O)C(C(=O)Nc2ccc(C(F)(F)F)cc2-c2cc(C(F)(F)F)ncn2)=C(O)C12CCCC2 [Example 380]" experimental_readout="Rate of uptake inhibition (%) (1 µM)" recorded_number=43
compound="CN1N(Cc2ccc(OCCCOC[C@H](O)CO)c(F)c2F)C(=O)C(C(=O)Nc2ccc(C(F)(F)F)cc2-c2ccc(C(F)(F)F)nc2)=C(O)C12CCCC2 [Example 386]" experimental_readout="Rate of uptake inhibition (%) (1 µM)" recorded_number=36

Prompt: Data request, read-out Rate of uptake inhibition (%) (1 µM), for CCCCCN1C(=O)C(C(=O)Nc2ccc(C(F)(F)F)cc2-c2ccc(C(F)(F)F)nc2)=C(O)[C@@]2(C)CCCN12 [Example 26]
Completion: 72

###

- Test system: rat small-intestinal brush border membrane vesicles
- experimental details: Inhibitory effect on 33PO4 uptake into rat small-intestinal brush border membrane vesicles (rapid filtration method)
- Assay type: biochemical, Wistar female rat
- assay conditions: 1 µM test compound; 33PO4 uptake into rat small-intestinal BBMVs, 60 seconds
In this section we review reported Rate of uptake inhibition (%) (1 µM) values for a set of compounds.
Express the reported value numerically, then name its unit.

Some entries whose results are on file:
compound="CN1N(Cc2cccc(F)c2F)C(=O)C(C(=O)Nc2ccc(C(F)(F)F)nc2-c2cncc(C(F)(F)F)c2)=C(O)C1(C)C [Example 306]" experimental_readout="Rate of uptake inhibition (%) (1 µM)" result=58%
compound="CN1N(Cc2ccc(OCCCCCOCCCO)c(F)c2F)C(=O)C(C(=O)Nc2ccc(C(F)(F)F)cc2-c2cc(C(F)(F)F)ncn2)=C(O)C12CCCC2 [Example 400]" experimental_readout="Rate of uptake inhibition (%) (1 µM)" result=36%
compound="C[C@]12CCCN1N(Cc1cc(F)ccc1F)C(=O)C(C(=O)Nc1ccc(C(F)(F)F)cc1-c1ccc(C(F)(F)F)nc1)=C2O [Example 172]" experimental_readout="Rate of uptake inhibition (%) (1 µM)" result=72%

Prompt: Data request, read-out Rate of uptake inhibition (%) (1 µM), for COCCN(CCOC)CCOc1ccc(CN2C(=O)C(C(=O)Nc3ccc(C(F)(F)F)cc3-c3cc(C(F)(F)F)ncn3)=C(O)C3(CCC3)N2C)c(F)c1F [Example 348]
Completion: 31%

Prompt: Data request, read-out Rate of uptake inhibition (%) (1 µM), for C[C@]12CCCN1N(Cc1ccc(OCCCCCO)c(F)c1F)C(=O)C(C(=O)Nc1ccc(C(F)(F)F)cc1-c1cc(C(F)(F)F)ncn1)=C2O [Example 162]
Completion: 73%

Prompt: Data request, read-out Rate of uptake inhibition (%) (1 µM), for CN1N(Cc2ccc(OCCN3CCOCC3)c(F)c2F)C(=O)C(C(=O)Nc2ccc(Br)c(C(F)(F)F)n2)=C(O)C12CCCCC2 [Example 298]
Completion: 10%

###

- System: rat small-intestinal brush border membrane vesicles
- experimental details: Inhibitory effect on 33PO4 uptake into rat small-intestinal brush border membrane vesicles (rapid filtration method)
- Type: biochemical, Wistar female rat
- assay conditions: 1 µM test compound; 33PO4 uptake into rat small-intestinal BBMVs, 60 seconds
experimental readout: Rate of uptake inhibition (%) (1 µM)
Give your result in % as a bare value.

molecule=C[C@]12CCCN1N(Cc1ccc(F)cc1F)C(=O)C(C(=O)Nc1ccc(C(F)(F)F)cc1-c1ccc(C(F)(F)F)nc1)=C2O experimental_readout="Rate of uptake inhibition (%) (1 µM)" recorded_number=73
molecule=Cc1c(C#N)ncnc1-c1cc(C(F)(F)F)ccc1NC(=O)C1=C(O)C(C)(C)N(C)N(Cc2cccc(F)c2F)C1=O experimental_readout="Rate of uptake inhibition (%) (1 µM)" recorded_number=65
molecule=C[C@]12CCCN1N(Cc1cccc(OC(F)(F)F)c1)C(=O)C(C(=O)Nc1ccc(C(F)(F)F)cc1-c1cc(C(F)(F)F)ncn1)=C2O experimental_readout="Rate of uptake inhibition (%) (1 µM)" recorded_number=73
molecule=C[C@H]1COC[C@H](C)N1CCOc1ccc(CN2C(=O)C(C(=O)Nc3ccc(C(F)(F)F)cc3-c3cc(C(F)(F)F)ncn3)=C(O)C3(CCC3)N2C)c(F)c1F experimental_readout="Rate of uptake inhibition (%) (1 µM)" recorded_number=68
molecule=CCCN(CCN(C)CCOC)c1ccc(CN2C(=O)C(C(=O)Nc3ccc(C(F)(F)F)cc3-c3cc(C(F)(F)F)ncn3)=C(O)C3(CCCC3)N2C)c(F)c1F experimental_readout="Rate of uptake inhibition (%) (1 µM)" recorded_number=24
molecule=COc1cc(-c2cc(C(F)(F)F)ccc2NC(=O)C2=C(O)[C@@]3(C)CCCN3N(Cc3cccc(F)c3F)C2=O)cnc1C#N experimental_readout="Rate of uptake inhibition (%) (1 µM)" recorded_number=86
molecule=CN1[C@@H](C(C)(C)C)C(O)=C(C(=O)Nc2ccc(Br)c(C(F)(F)F)n2)C(=O)N1Cc1cccc(F)c1F experimental_readout="Rate of uptake inhibition (%) (1 µM)" recorded_number=69
molecule=C[C@]12CCCN1N(Cc1cccc(F)c1Cl)C(=O)C(C(=O)Nc1ccc(C(F)(F)F)cc1-c1ccc(C(F)(F)F)nc1)=C2O experimental_readout="Rate of uptake inhibition (%) (1 µM)" recorded_number=77
molecule=C[C@]12CCCN1N(Cc1c(F)cccc1Cl)C(=O)C(C(=O)Nc1ccc(C(F)(F)F)cc1-c1cc(C(F)(F)F)ncn1)=C2O experimental_readout="Rate of uptake inhibition (%) (1 µM)" recorded_number=71
molecule=C[C@]12CCCN1N(Cc1c(F)cc(C#CCN3CCOCC3)cc1F)C(=O)C(C(=O)Nc1ccc(C(F)(F)F)cc1-c1ccc(C(F)(F)F)nc1)=C2O experimental_readout="Rate of uptake inhibition (%) (1 µM)" recorded_number=71

Prompt: Data request, read-out Rate of uptake inhibition (%) (1 µM), for CN(CCOc1ccc(CN2C(=O)C(C(=O)Nc3ccc(C(F)(F)F)cc3-c3cc(C(F)(F)F)ncn3)=C(O)C3(CCC3)N2C)c(F)c1F)C1CCOC1 (stereo not drawn)
Completion: 66

Prompt: Data request, read-out Rate of uptake inhibition (%) (1 µM), for CN1N(Cc2ccc(OCCCC(=O)O)c(F)c2F)C(=O)C(C(=O)Nc2ccc(C(F)(F)F)cc2-c2cc(C(F)(F)F)ncn2)=C(O)C12CCCC2
Completion: 3

Prompt: Data request, read-out Rate of uptake inhibition (%) (1 µM), for CN1N(Cc2ccc(OCCN3CCOCC3)c(F)c2F)C(=O)C(C(=O)Nc2ccc(C(F)(F)F)cc2-c2ccc(C(F)(F)F)nc2)=C(O)C1(C)C
Completion: 72

Prompt: Data request, read-out Rate of uptake inhibition (%) (1 µM), for C[C@@H]1COC[C@H](C)N1CCOc1ccc(CN2C(=O)C(C(=O)Nc3ccc(C(F)(F)F)cc3-c3cc(C(F)(F)F)ncn3)=C(O)C3(CCC3)N2C)c(F)c1F
Completion: 58

Prompt: Data request, read-out Rate of uptake inhibition (%) (1 µM), for C[C@]12CCCN1N(Cc1ccc(OCCCOC[C@H](O)CO)c(F)c1F)C(=O)C(C(=O)Nc1ccc(C(F)(F)F)cc1-c1ccc(C(F)(F)F)nc1)=C2O
Completion: 57

Prompt: Data request, read-out Rate of uptake inhibition (%) (1 µM), for CN1[C@@H](C(C)(C)C)C(O)=C(C(=O)Nc2cccc(C(F)(F)F)n2)C(=O)N1Cc1cccc(F)c1F
Completion: 71

Prompt: Data request, read-out Rate of uptake inhibition (%) (1 µM), for CN1N(Cc2ccc(OCCN3CCN(S(C)(=O)=O)CC3)c(F)c2F)C(=O)C(C(=O)Nc2ccc(C(F)(F)F)cc2-c2cc(C(F)(F)F)ncn2)=C(O)C12CCC2
Completion: 11

Prompt: Data request, read-out Rate of uptake inhibition (%) (1 µM), for CN1N(Cc2ccc(NCCCN3CCOCC3)c(F)c2F)C(=O)C(C(=O)Nc2ccc(C(F)(F)F)cc2-c2cc(C(F)(F)F)ncn2)=C(O)C12CCCC2
Completion: 31

Prompt: Data request, read-out Rate of uptake inhibition (%) (1 µM), for C[C@]12CCCN1N(Cc1cccc(F)c1F)C(=O)C(C(=O)Nc1ccc(C(F)(F)F)cc1-c1cnc(N3CC4(COC4)C3)c(C#N)c1)=C2O
Completion: 56

Prompt: Data request, read-out Rate of uptake inhibition (%) (1 µM), for COC(=O)c1cc(F)c(CN2C(=O)C(C(=O)Nc3ccc(C(F)(F)F)cc3-c3ccc(C(F)(F)F)nc3)=C(O)[C@@]3(C)CCCN23)c(F)c1
Completion: 75
